Test system: Staphylococcus aureus ATCC 6538P
Known MIC of a selection of compounds
The response must be a number in µM with no trailing unit.

CC(C)C[C@H](NC(=O)[C@H](CC(C)C)NC(=O)[C@H](CCCCN)NC(=O)[C@H](CCCCN)NC(=O)[C@H](CC(C)C)NC(=O)[C@H](CC(C)C)NC(=O)[C@H](CCCCN)NC(=O)[C@H](CCCCN)NC(=O)[C@@H](N)CC(C)C)C(=O)N[C@@H](CCCCN)C(=O)N[C@@H](Cc1c[nH]c2ccccc12)C(N)=O [LKKLLKKLLKW] : 1.42
CC(C)C[C@H](NC(=O)[C@H](CC(C)C)NC(=O)[C@H](CCCCN)NC(=O)[C@H](CC(C)C)NC(=O)[C@H](CC(C)C)NC(=O)[C@H](Cc1c[nH]c2ccccc12)NC(=O)[C@H](CCCCN)NC(=O)[C@H](CC(C)C)NC(=O)[C@H](CC(C)C)NC(=O)[C@H](CCCCN)NC(=O)[C@H](CCCCN)NC(=O)[C@@H](N)CC(C)C)C(=O)N[C@@H](CCCCN)C(N)=O [LKKLLKWLLKLLK] : 7.63

Below: the item to evaluate.
Bench note, Staphylococcus aureus ATCC 6538P: CC(C)C[C@H](NC(=O)[C@H](CC(C)C)NC(=O)[C@H](CCCCN)NC(=O)[C@H](CC(C)C)NC(=O)[C@H](CC(C)C)NC(=O)[C@H](Cc1c[nH]c2ccccc12)NC(=O)[C@H](CCCCN)NC(=O)[C@H](CC(C)C)NC(=O)[C@H](CC(C)C)NC(=O)[C@H](CCCCN)NC(=O)[C@H](CC(C)C)NC(=O)[C@@H](N)CC(C)C)C(=O)N[C@@H](CCCCN)C(N)=O [LLKLLKWLLKLLK] , MIC reads 15.4

----------
Items are presented alongside their recorded MIC.
Tested on: Escherichia coli ATCC 25922

CC[C@H](C)[C@H](NC(=O)[C@H](CCCN=C(N)N)NC(=O)[C@H](CCCCN)NC(=O)[C@H](CC(C)C)NC(=O)[C@H](CCSC)NC(=O)CN)C(=O)N[C@@H](CCCCN)C(=O)N[C@H](C(=O)N[C@@H](CC(C)C)C(=O)N[C@@H](CCSC)C(N)=O)[C@@H](C)O : > 200 µM

Let us move to another entry and its MIC.
Tested system Escherichia coli ATCC 25922; MIC recorded for CC[C@H](C)[C@H](N)C(=O)N[C@@H](CC(C)C)C(=O)NCC(=O)N[C@H](C(=O)N[C@H](C(=O)N[C@@H](CC(C)C)C(=O)N1CCC[C@H]1C(=O)N[C@@H](CC(C)C)C(=O)N[C@@H](CC(C)C)C(=O)N[C@@H](CCCCN)C(=O)NCC(=O)N[C@@H](CC(C)C)C(N)=O)[C@@H](C)CC)[C@@H](C)O was > 256 µM

----------
Tested on: Pseudomonas aeruginosa
Test: ≥ marks a high value that may be exact or a test limit, other limits are often not marked, values filed in µg/mL are converted to µM
Below, each entry is listed alongside its reported MIC.
Just the number in µM, nothing appended.

CC[C@H](C)[C@H](NC(=O)CN)C(=O)N[C@@H](CC(C)C)C(=O)N[C@@H](CO)C(=O)N[C@@H](CO)C(=O)N[C@@H](CC(C)C)C(=O)N[C@@H](Cc1c[nH]c2ccccc12)C(=O)N[C@@H](CCCCN)C(=O)N[C@@H](CCCCN)C(=O)N[C@@H](CC(C)C)C(=O)N[C@@H](CCCCN)C(=O)N[C@@H](CCCCN)C(=O)N[C@@H](Cc1c[nH]c2ccccc12)C(=O)N[C@H](C(=O)N[C@@H](C)C(=O)N[C@@H](CCCCN)C(N)=O)[C@@H](C)CC [GILSSLWKKLKKWIAK] : 24

Please look at the following compound next.
Entry CC(C)C[C@H](NC(=O)[C@H](Cc1ccc(O)cc1)NC(=O)[C@H](CCCCN)NC(=O)[C@H](CC(C)C)NC(=O)[C@H](CC(C)C)NC(=O)[C@H](CCCCN)NC(=O)[C@H](CCCCN)NC(=O)[C@H](Cc1ccccc1)NC(=O)[C@H](CC(C)C)NC(=O)[C@H](CCCN=C(N)N)NC(=O)[C@@H](N)CCCCN)C(=O)N[C@@H](CCCN=C(N)N)C(=O)N[C@@H](CCCCN)C(=O)N[C@@H](Cc1ccccc1)C(=O)O [KRLFKKLLKYLRKF] , MIC reported as 2.13

----------
Below are MIC values recorded for Salmonella enterica subsp. enterica serovar Pullorum ATCC 7913.

CC[C@H](C)[C@H](N)C(=O)N[C@H](C(=O)N[C@@H](CCCN=C(N)N)C(=O)N[C@@H](CCCN=C(N)N)C(=O)N[C@H](C(=O)N[C@@H](CCCN=C(N)N)C(=O)N[C@@H](CCCN=C(N)N)C(=O)N[C@H](C(=O)N[C@H](C(N)=O)[C@@H](C)CC)[C@@H](C)CC)[C@@H](C)CC)[C@@H](C)CC : ≥ 32 µM
CC[C@H](C)[C@H](NC(=O)[C@H](CC(C)C)NC(=O)[C@@H](NC(=O)[C@@H](N)CC(=O)O)[C@@H](C)CC)C(=O)N[C@H](C(=O)N[C@H](C(=O)NCC(=O)NCC(=O)N[C@@H](CCCCN)C(=O)N[C@@H](CCC(=O)O)C(=O)N[C@@H](CCCN=C(N)N)C(=O)N[C@@H](CCCCN)C(=O)N[C@@H](CCCCN)C(=O)N[C@@H](CCCN=C(N)N)C(=O)N[C@@H](CCCN=C(N)N)C(=O)N[C@@H](CCCN=C(N)N)C(N)=O)C(C)C)[C@@H](C)CC : ≥ 64 µM

# molecule CC[C@H](C)[C@H](NC(=O)[C@H](CCCN=C(N)N)NC(=O)[C@H](CC(C)C)NC(=O)[C@@H](NC(=O)[C@@H](NC(=O)[C@H](CCCN=C(N)N)NC(=O)[C@H](C)NC(=O)[C@H](C)N)[C@@H](C)CC)[C@@H](C)CC)C(=O)N[C@@H](CCCN=C(N)N)C(=O)N[C@@H](Cc1ccccc1)C(=O)N[C@@H](CCCN=C(N)N)C(N)=O ; its MIC = 2 µM

----------
Tested on: Pseudomonas aeruginosa ATCC 9027
Assay: ≥ marks a high value that may be exact or a test limit, other limits are often not marked, values filed in µg/mL are converted to µM
Measured MIC, listed per entry.
Give the value in µM but do not write µM after it.

Value of MIC reported for the compound CC[C@H](C)[C@H](NC(=O)[C@@H](NC(=O)[C@H](CO)NC(=O)[C@H](C)NC(=O)[C@@H](NC(=O)[C@H](CCCCN)NC(=O)[C@H](CCCCN)NC(=O)[C@@H](NC(=O)[C@@H](NC(=O)[C@H](C)NC(=O)[C@H](Cc1ccccc1)NC(=O)[C@H](CC(C)C)NC(=O)CN)C(C)C)[C@@H](C)CC)C(C)C)C(C)C)C(=O)NCC(=O)O is 183

response.value for CC[C@H](C)[C@H](NC(=O)[C@H](CO)NC(=O)[C@H](CCCCN)NC(=O)[C@@H](NC(=O)CNC(=O)[C@H](CCCCN)NC(=O)[C@H](Cc1c[nH]c2ccccc12)NC(=O)[C@H](CC(C)C)NC(=O)[C@H](CCCCN)NC(=O)CNC(=O)[C@H](CC(C)C)NC(=O)[C@@H](NC(=O)[C@@H](N)CO)[C@@H](C)CC)C(C)C)C(=O)N[C@@H](Cc1ccccc1)C(N)=O (field: MIC) = 15.9

----------
System: Salmonella enterica subsp. enterica serovar Pullorum C79-13
value type: MIC (µM)
# unit: µM | format: bare number

Entry NCCCC[C@H](NC(=O)[C@H](Cc1c[nH]c2ccccc12)NC(=O)[C@H](CCCN=C(N)N)NC(=O)[C@H](CCCN=C(N)N)NC(=O)[C@H](Cc1c[nH]c2ccccc12)NC(=O)[C@H](CCC(N)=O)NC(=O)[C@H](Cc1c[nH]c2ccccc12)NC(=O)[C@H](CCCN=C(N)N)NC(=O)[C@H](CCCN=C(N)N)NC(=O)[C@H](Cc1c[nH]c2ccccc12)NC(=O)[C@@H](N)CCCCN)C(N)=O , MIC reported as 16

----------
Record type: MIC measurement. Applies to: Leuconostoc lactis

CC[C@H](C)[C@H](NC(=O)[C@@H](NC(=O)[C@H](C)NC(=O)[C@H](Cc1ccccc1)NC(=O)[C@H](CC(C)C)NC(=O)CN)C(C)C)C(=O)N[C@@H](CCCCN)C(=O)N[C@@H](CCCCN)C(=O)N[C@H](C(=O)N[C@@H](C)C(=O)N[C@@H](CCCCN)C(=O)N[C@H](C(=O)N[C@H](C(=O)N[C@@H](CCCCN)C(=O)N[C@@H](CCCCN)C(=O)N[C@@H](CC(C)C)C(N)=O)[C@@H](C)CC)C(C)C)C(C)C [GLFAVIKKVAKVIKKL] : 1.71 µM
CC[C@H](C)[C@H](NC(=O)[C@@H](NC(=O)[C@H](CO)NC(=O)[C@H](C)NC(=O)[C@@H](NC(=O)[C@H](CCCCN)NC(=O)[C@H](CCCCN)NC(=O)[C@@H](NC(=O)[C@@H](NC(=O)[C@H](CC(=O)O)NC(=O)[C@H](C)NC(=O)[C@H](CC(C)C)NC(=O)CN)C(C)C)[C@@H](C)CC)C(C)C)C(C)C)C(=O)NCC(=O)NCC(=O)N[C@@H](CC(C)C)C(N)=O [GLADVIKKVASVIGGL] : ≥ 64.9 µM
CC[C@H](C)[C@H](NC(=O)[C@H](CCCCN)NC(=O)[C@H](CO)NC(=O)[C@H](C)NC(=O)[C@@H](NC(=O)[C@H](CCCCN)NC(=O)[C@H](CCCCN)NC(=O)[C@@H](NC(=O)[C@@H](NC(=O)[C@H](CC(=O)O)NC(=O)[C@H](Cc1ccccc1)NC(=O)[C@H](CC(C)C)NC(=O)CN)C(C)C)[C@@H](C)CC)C(C)C)C(=O)N[C@@H](CCCCN)C(=O)NCC(=O)N[C@@H](CC(C)C)C(N)=O [GLFDVIKKVASKIKGL] : 3.5 µM

Lookup result for CC[C@H](C)[C@H](NC(=O)[C@@H](NC(=O)[C@H](CO)NC(=O)[C@H](C)NC(=O)[C@@H](NC(=O)[C@H](CCCCN)NC(=O)[C@H](C)NC(=O)[C@@H](NC(=O)[C@@H](NC(=O)[C@H](CC(=O)O)NC(=O)[C@H](Cc1ccccc1)NC(=O)[C@H](CC(C)C)NC(=O)CN)C(C)C)[C@@H](C)CC)C(C)C)C(C)C)C(=O)NCC(=O)NCC(=O)N[C@@H](CC(C)C)C(N)=O [GLFDVIAKVASVIGGL] ; measured MIC: 16 µM
